# TESTED ON: T1, Soluble TSHR (22-260) protein (human, UniProt P16473 22-260)
# T1 construct: range 22-260
# ASSAY NOTES: SPR (Biacore T200, 25 C), antibody captured on anti-human Fc, soluble TSHR (22-260) as analyte, 1:1 fit;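 also: antibodies captured at 0.1 ug/mL on a CM5 sensor chip bearing anti-human Fc, with HBS-EP+ running buffer at pH 7.4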
Below, each entry is listed alongside its reported kon.
Please respond with the number in M⁻¹ s⁻¹ and leave the unit unwritten.

Consider the worked cases shown below.
BINDER: TSHB-9 (antibody, V domains shown) VH: EVQLVQSGAEVKKPGESLKISCKASGYSLTDNWTGWVRQKPGKGLEWMGIIYPGDSDTRYSPSFQGQVTISADKSISTAYLQWSSLKASDTAIYYCVGLDWNYNPLRYWGQGTLVTVSS VL: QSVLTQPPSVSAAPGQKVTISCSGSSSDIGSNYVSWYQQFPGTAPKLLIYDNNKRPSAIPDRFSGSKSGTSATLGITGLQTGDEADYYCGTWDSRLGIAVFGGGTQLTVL
EXPERIMENTAL RESULT: 104000
//
BINDER: TSHB-3 (antibody, V domains shown) VH: EVQLVQSGAEVKKPGESLKISCKASGYSLTDNWIGWVRQKPGKGLEWMGIIYPGDSDTRYSPSFQGQVTISADKSISTAYLQWSSLKASDTAIYYCVGLEWNYNPLRYWGQGTLVTVSS VL: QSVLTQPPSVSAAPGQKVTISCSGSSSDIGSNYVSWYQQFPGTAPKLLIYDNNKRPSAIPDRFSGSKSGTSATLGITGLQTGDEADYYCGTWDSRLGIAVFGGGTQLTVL
EXPERIMENTAL RESULT: 177000
//
BINDER: TSHB-4 (antibody, V domains shown) VH: EVQLVQSGAEVKKPGESLKISCKASGYELTDNWIGWVRQKPGKGLEWMGIIYPGDSDTRYSPSFQGQVTISADKSISTAYLQWSSLKASDTAIYYCVGLDWNYNPLRYWGQGTLVTVSS VL: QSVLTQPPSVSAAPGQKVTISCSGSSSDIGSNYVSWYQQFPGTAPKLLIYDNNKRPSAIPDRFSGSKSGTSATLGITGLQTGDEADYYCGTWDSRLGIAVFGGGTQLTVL
EXPERIMENTAL RESULT: 150000

**Query** What kon value was documented for this binder, TSHB-21 (antibody, V domains shown) VH: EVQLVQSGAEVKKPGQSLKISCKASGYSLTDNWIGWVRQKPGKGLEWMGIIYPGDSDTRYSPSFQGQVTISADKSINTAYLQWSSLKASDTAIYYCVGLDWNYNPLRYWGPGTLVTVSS VL: QSVLTQPPSVSAAPGQKVTISCSGSSSDIGSNYVSWYQQLPGTAPKLLIYDNNKRPSGIPDRFSGSKSGTSATLGITGLQTGDEADYYCATWDSRLGIAVFGGGTQLTVL ?
**Result** 115000

**Query** What kon value was documented for this binder, TSHB-15 (antibody, V domains shown) VH: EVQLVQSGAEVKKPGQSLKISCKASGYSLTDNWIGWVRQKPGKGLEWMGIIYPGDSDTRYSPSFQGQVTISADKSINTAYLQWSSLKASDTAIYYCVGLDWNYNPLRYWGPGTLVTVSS VL: QSVLTQPPSVSAAPGQKVTISCSGSSSDIGSNYVSWYQQLPGTAPKLLIYDNNKRPSGIPDRFSGSKSGTSATLGITGLQTGDEADYYCGTWDSRFGIAVFGGGTQLTVL ?
**Result** 121000

**Query** What kon value was documented for this binder, TSHB-1 (antibody, V domains shown) VH: EVQLVQSGAEVKKPGESLKISCKASGYSLTDNWIGWVRQKPGKGLEWMGIIYPGDSDTRYSPSFQGQVTISADKSISTAYLQWSSLKASDTAIYYCVGLDWNYNPLRYWGQGTLVTVSS VL: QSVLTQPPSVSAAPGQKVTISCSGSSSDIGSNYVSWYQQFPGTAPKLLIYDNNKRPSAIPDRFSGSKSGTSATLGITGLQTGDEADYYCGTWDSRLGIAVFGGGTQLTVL ?
**Result** 161000

**Query** What kon value was documented for this binder, TSHB-14 (antibody, V domains shown) VH: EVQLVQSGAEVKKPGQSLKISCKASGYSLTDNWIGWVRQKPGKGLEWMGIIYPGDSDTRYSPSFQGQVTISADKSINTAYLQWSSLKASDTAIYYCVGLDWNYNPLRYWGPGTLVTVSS VL: QSVLTQPPSVSAAPGQKVTISCSGSSSDIGSNYVSWYQQLPGTAPKLLIYDNNKRPSGIPDRFSGSKSGTSATLGITGLQTGDEADYYCGTWDSRWGIAVFGGGTQLTVL ?
**Result** 140000

**Query** What kon value was documented for this binder, TSHB-18 (antibody, V domains shown) VH: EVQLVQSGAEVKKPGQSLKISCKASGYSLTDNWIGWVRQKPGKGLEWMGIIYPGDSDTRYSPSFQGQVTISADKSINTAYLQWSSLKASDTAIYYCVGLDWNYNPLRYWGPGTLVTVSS VL: QSVLTQPPSVSAAPGQKVTISCSGSSTDIGSNYVSWYQQLPGTAPKLLIYDNNKRPSGIPDRFSGSKSGTSATLGITGLQTGDEADYYCGTWDSRLGIAVFGGGTQLTVL ?
**Result** 125000

**Query** What kon value was documented for this binder, TSHB-20 (antibody, V domains shown) VH: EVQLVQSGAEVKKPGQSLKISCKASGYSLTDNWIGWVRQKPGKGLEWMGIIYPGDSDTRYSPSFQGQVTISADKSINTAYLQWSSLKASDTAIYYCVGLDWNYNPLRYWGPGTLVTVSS VL: QSVLTQPPSVSAAPGQKVTISCSGSSSNIGSNYVSWYQQLPGTAPKLLIYDNNKRPSGIPDRFSGSKSGTSATLGITGLQTGDEADYYCGTWDSRLGIAVFGGGTQLTVL ?
**Result** 109000

**Query** What kon value was documented for this binder, TSHB-17 (antibody, V domains shown) VH: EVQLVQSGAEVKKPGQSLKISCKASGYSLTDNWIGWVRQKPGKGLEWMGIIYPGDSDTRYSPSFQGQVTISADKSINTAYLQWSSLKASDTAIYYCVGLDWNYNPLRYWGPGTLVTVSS VL: QSVLTQPPSVSAAPGQKVTISCSGSSSDIGSLYVSWYQQLPGTAPKLLIYDNNKRPSGIPDRFSGSKSGTSATLGITGLQTGDEADYYCGTWDSRLGIAVFGGGTQLTVL ?
**Result** 49400

# credit: patent US20250388688A1
